protocol: NCI Yeast Anticancer Drug Screen. Data for the bub3 strain (AID 167)
conditions: S. cerevisiae bub3 mutant strain, at 50.0 µM, stronger effect = higher value
About 79,000 compounds went through this panel and 15% of them were active in at least one assay; those are over-represented in the sample as a whole.
Entries annotated with measured growth inhibition

compound	outputUnit	growth inhibition
CN1C(c2ccccc2)=C(C#N)C(=O)CC(c2ccccc2)N1C (stereo unspecified)	%	11.4
Cc1ccc(S(=O)(=O)OI(O)CC(F)(F)F)cc1	%	6.5
CCOC(=O)CCC1(CCC(=O)OCC)CCCCCCCCC(CCC(=O)OCC)(CCC(=O)OCC)C(=O)C1=O	%	-4.7
CCOC(=O)c1ccc(NN=NC(C)(C)C)cc1	%	-7.3
Cc1cn(C2CC3OP(=O)(OCc4ccccc4)OCC3O2)c(=O)[nH]c1=O (stereo unspecified)	%	8
Cc1cn(C2CC(O)C(O)C(C)O2)c(=O)[nH]c1=O (stereo unspecified)	%	12.2
COc1ccc(Br)cc1/C=N\NC(=O)c1ccccc1N(C)C	%	-3.05
[N-]=[N+]=CC(=O)c1cc(-c2ccccc2)nc2c(-c3ccccc3)cccc12	%	62.8
CCOC(=O)c1sc(C(=O)OCC)c(O)c1O	%	95.7
C=C(CN(C)C)C(=O)c1ccc(OC)cc1	%	2
S=c1[nH]nc(SCc2ccc(Cl)cc2Cl)c2[nH]cnc12	%	-0.5

* * *

protocol: NCI Yeast Anticancer Drug Screen. Data for the sgs1 mgt1 strain (AID 161);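 also: 0% = growth of cultures given vehicle only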
conditions: S. cerevisiae sgs1 mgt1 strain, at 50.0 µM, stronger effect = higher value
The panel holds about 79,000 compounds, 15% with a hit somewhere; the sample as a whole holds those more often.
quantityKind: growth inhibition (%)

compound	val
c1ccc(-c2cnc(C3CCCCC3)o2)cc1	14.8
Cc1cc(O)cc(O)c1C(=O)O[C@]1(C)C(=O)C=C2C=C(/C=C/C(=O)O)OC=C2C1=O	-9.95
NC(Cc1ccc(F)cc1)(C(=O)O)c1ccccc1 (centres undefined)	8.55
N#CCC(=O)Nc1ccccc1	5.8
Cc1c(Br)c(C)[n+]([O-])n1O	5.05
CCOC(=O)c1cc2cc(C)cc(C(=O)c3ccc([N+](=O)[O-])cc3)c2[nH]1	30.6
BrCCCCCBr	1.5
O=C(O)C(Cc1ccccc1)C(=O)O.[NH2-].[NH2-].[Pt+2]	10.9
O=C(CSSCC(=O)Nc1ccc(Br)cc1)Nc1ccc(Br)cc1	-11.5
CCOC(=O)CCC1(CCC(=O)OCC)c2ccccc2-c2ccccc21	-1.85
O=S(=O)(Nc1cccc(F)c1)c1ccc(F)cc1	-3.6
C/C(=N\N(c1ccccc1)c1ccccc1)c1c(O)cc(C)oc1=O	12.9
CC(=O)/C=C/C=C\C=C/N=C(c1ccccc1)c1ccccc1	-2.7
COc1cc2c3c(c1)[nH]c(=S)n3C(=O)C(C)S2 (centres undefined)	-4.9
CC(=O)Nc1ccc(O)c(CN2CCN(c3ccccc3)CC2)c1	17.6
CC1(CCOCc2ccccc2)NC(=O)NC1=O (centres undefined)	-44.4
CC(C)CCC(=S)N1CCN(c2ccccc2)CC1	2.2
CCCCCCCCCOc1ccc2ccccc2c1	22.4
O=C(CN(C(=O)OC12CC3CC(CC(C3)C1)C2)C(=O)OC12CC3CC(CC(C3)C1)C2)Oc1ccc([N+](=O)[O-])cc1	7.35
CCOC(=O)Cn1c(=O)c2nc(SC)sc2n(-c2ccccc2)c1=O	-37.1
CCOC(=O)C1=NN(c2ccccc2)C(=O)/C1=C\N1CC(=O)NC1=S	-31.5
O=c1[nH]cc(F)c(=S)[nH]1	-5.9
O=C(CCCn1ccnc1[N+](=O)[O-])NCCn1ccnc1[N+](=O)[O-]	-9.9
O=[N+]([O-])c1ccccc1S(=O)(=O)c1ccccc1[N+](=O)[O-]	-14.1

* * *

Entries annotated with measured growth inhibition
protocol: NCI Yeast Anticancer Drug Screen. Data for the bub3 strain (AID 167)
conditions: S. cerevisiae bub3 mutant strain, at 50.0 µM, stronger effect = higher value
About 79,000 compounds went through this panel and 15% of them were active in at least one assay; those are over-represented in the sample as a whole.

molecule	outputUnit	growth inhibition
O=C(c1ccccc1)c1cccnc1	%	-45.2
O=C(Nc1cc(Cl)c(I)c(Cl)c1)C(F)(F)F	%	79.8
BrC1=CCC23CC=C(Br)[C@H]4CC2(COC3)C[C@@H]1O4 (some centres not stated)	%	-19.4
CCOC(=O)C(C(=O)CC)C(=O)OCC	%	14.2
NCc1c(Cl)c(Cl)c(Cl)c(CN)c1Cl	%	17.8
COc1cccc2c(NCCCCCO[N+](=O)[O-])cc[n+](C)c12	%	16.6
C(#CC[P+](c1ccccc1)(c1ccccc1)c1ccccc1)C[P+](c1ccccc1)(c1ccccc1)c1ccccc1	%	-5.4
CCCCCCCCSc1nc2ccc(N=Cc3ccccc3O)cc2s1	%	21.7
CS(=O)(=O)OCCCCCCCCCCCC1C=CCC1 (configuration not stated)	%	-8.25
N#CC(C#N)=CNC(=S)Nc1ccc(S(=O)(=O)Nc2nccs2)cc1	%	-3.05
N[C@@H]1c2c(Br)sc(N3CCOCC3)c2C(=O)[C@@H]1O	%	5.4
O=C(NCCO)c1cc2ccccc2cc1O	%	-17.9
C=CCCC1(C)OC(C)C(C)O1 (configuration not stated)	%	-5.85
CC(C)(Oc1ccccc1)C(=O)Sc1c(-c2ccccc2)c(=O)n(-c2ccccc2)c(=S)n1-c1ccccc1	%	-13.2
CC1(C)C/C(=C\c2ccc([N+](=O)[O-])cc2)C(=O)c2ccccc21	%	76.5
COc1ccc(/C=c2\sc3n(c2=O)C(N)=C(C#N)C(c2ccc(OC)cc2)C=3c2nc3ccccc3[nH]2)cc1 (configuration not stated)	%	8.95
O=c1/c(=C/c2cccc([N+](=O)[O-])c2)sc2nc3ccccc3n12	%	-10.1
O=C(Cc1ccccc1CCO)NCCc1ccccc1	%	-21.8
COC(=O)/C=C\n1c(C)cc(=O)[nH]c1=O	%	-2.8
CC[N+](C)(CC)CCOC(=O)C(C1=CCCCC1)C1(O)CCCCC1 (configuration not stated)	%	2.5
O=P1(C(c2ccccc2)c2ccccc2)OC2CC(Cl)CC(C2)O1 (configuration not stated)	%	0.25
COC(=O)C(=O)C(C(=O)C(=O)Nc1ccccc1[N+](=O)[O-])c1nc2ccc([N+](=O)[O-])cc2[nH]c1=O (configuration not stated)	%	27.8
COC(=O)C1OC1(C)c1ccccc1 (configuration not stated)	%	-1.95
COC1=C(C(=O)OC(C)(C)C)[C@]2(C)C(C(=O)OC(C)(C)C)C(OC)=C(C(=O)OC(C)(C)C)[C@]2(C)C1C(=O)OC(C)(C)C (some centres not stated)	%	-3.25
C=CCCCCCCCCC(=O)NCc1cccnc1	%	6.8
O=C1OCc2c1cc1cc3c(cc1c2-c1ccc2c(c1)OCO2)OCO3	%	-19.2
COc1cc(C(OC(C)=O)OC(C)=O)c(Cl)cc1OC(C)=O	%	-2.6
CN(C)C(=O)OCC1COc2ccccc2O1 (configuration not stated)	%	-11.1
COc1cc(/C=C/C(=O)NCCCCN)ccc1O	%	13
CCC1=NO[C@@H](C(=O)OCc2ccccc2)[C@H]1C	%	9.15
CCCO/N=[N+](\[O-])N(CC)CC	%	-0.8
Cc1cc(C)c2ccc(=O)[nH]c2n1	%	8.75
CNc1c2c(nc3ccccc13)CCCC2	%	15.1
O=C1C=C(n2ccccc2=O)CCC1	%	-1.8
COc1ccccc1NC(=O)Nc1ccc(Nc2ccccc2)cc1	%	92.2
O=C1c2ccccc2C(=O)c2c(O)c3c(c(O)c21)CCCC3	%	1.95
C=C1C(=O)O[C@@H]2/C=C(\C)CC/C=C(/C)CC[C@@H]12	%	54.4
Cc1cc(Br)ccc1N	%	19.1
ClC1CC[N-]CC1.ClC1CC[N-]CC1.O=C(O)CC(=O)O.[Pt+2]	%	23.4
CC(C)NC1(C#N)CCN(Cc2ccccc2)CC1	%	-29.1
COC(=O)c1ccccc1NN=Nc1ccccc1Cl	%	6.4
CC(C)=CC(=O)N1CCN(C(=O)C=C(C)C)CC1	%	10.9
O=S(=O)(O)c1ccccc1O	%	-19.9
COC(=O)c1ccccc1/C=C1\SC(=S)NC1=O	%	-4.95
CC1C=C(OC(=O)c2ccccc2)C(=O)C(n2cc(F)c(=O)n(C(=O)c3ccccc3)c2=O)O1 (configuration not stated)	%	-1.25
NC1=NN(c2ccccc2)C(=O)C1/C(=N\NC(=O)c1cc2ccccc2cc1O)C(=O)Nc1ccc(Cl)c(Cl)c1 (configuration not stated)	%	6.95
Cc1ccc(OS(=O)(=O)c2ccccc2)cc1	%	35.2

* * *

protocol: NCI Yeast Anticancer Drug Screen. Data for the mlh1 rad18 strain (AID 175)
conditions: S. cerevisiae mlh1 rad18 strain growth inhibition; at 50.0 µM; stronger effect = higher value
About 79,000 compounds went through this panel and 15% of them were active in at least one assay; those are over-represented in the sample as a whole.
Entries annotated with measured growth inhibition
quantityKind: growth inhibition (%)

compound	quantityKind	outputUnit	val
COC(=O)C1C(O)C(C)C(OC(C)=O)C(C)/C=C\C=C(C)C(=O)Nc2c(C)c(OC(C)=O)c3c(c2O)C(=O)C(C)=C2OCOC(=C23)C(C)=CC(C)(O)C(O)C(C)C1O (stereo unspecified)	growth inhibition	%	20.9
CCCCOC(=O)CC(C(=O)OCCCC)N1CCNCC1 (stereo unspecified)	growth inhibition	%	-3.1
C/C=C/C(O)CCCC (stereo unspecified)	growth inhibition	%	-7.2
O=C1C(Nc2ccccc2)=C(c2ccccc2)C(=O)N1c1ccccc1	growth inhibition	%	-10.8
NN(CC(=O)O)CC(=O)O	growth inhibition	%	20.9
Cc1c2c(cc3c(=O)ccn(CCN(C)C)c13)c(=O)ccn2CCN(C)C	growth inhibition	%	-16.4
O=C(O)/C(=C\c1ccccc1Cl)S(=O)(=O)c1ccccc1	growth inhibition	%	15.1
CCOCCC(=O)OCCC(C)OC (stereo unspecified)	growth inhibition	%	-37.2
CC12CCC3C(CCC4CC(OC5CCCCO5)CCC43C)C1CC/C2=C/C#N (stereo unspecified)	growth inhibition	%	-2.65
O=C1c2ccccc2C(=O)c2c(O)cc([N+](=O)[O-])cc21	growth inhibition	%	-1.5
Nc1nc2nc3c(nc2c(=O)[nH]1)CN(c1ccc(C(=O)O)cc1)C3=O	growth inhibition	%	11.4
